Cited source: PubChem BioAssay (Tox21)

Assay: A CellTox Green Cytotoxicity Assay to monitor cytotoxicity in HEK293 cells - 0 hour (AID 1224869); further: nearly all actives have a fitted effect of over 50% in size
Settings: CellTox Green fluorescence; series mostly up to 76.8 µM
Calls of active or inactive are those of the source. The call rests on the fitted dose curve; in most records, active means well fitted activation curve with a large enough effect in the repeat runs; inconclusive means weak or mixed curves; inactive means flat fitted curve, though single readings scatter.
MEASURED PARAMETER: cytotoxicity

Here's what some known entries look like.
{"ITEM SMILES": "CC1CCCCC1", "cytotoxicity": "inactive"}
{"ITEM SMILES": "CCOC(/C=C(\\C)CCC=C(C)C)OCC", "cytotoxicity": "inactive"}
{"ITEM SMILES": "CO[C@H]1C=CO[C@@]2(C)Oc3c(C)c(O)c4c(O)c(cc(O)c4c3C2=O)NC(=O)/C(C)=C\\C=C/[C@H](C)[C@H](O)[C@@H](C)[C@@H](O)[C@@H](C)[C@H](OC(C)=O)[C@@H]1C", "cytotoxicity": "inactive"}
{"ITEM SMILES": "CC(C)C(=O)OCc1ccccc1", "cytotoxicity": "inactive"}

Let us move to another entry and its cytotoxicity.
Ask: Fill in cytotoxicity for record `CCCCNc1c(C(=O)OCC)c(C)nc2c1cnn2CC`
Reply: inactive
